tested-system: A2.1 HLA molecules (Homo sapiens, UniProt P04439, D140Y/D185E/D98H/E176V/E277Q/G131W/G231S/I119V/I121R/I166T/I218V/L300P/L318F/N151K/N90K/P208A/P217A/Q86G/Q94H/R138H/R169H/T345S)
Assay type: binding
Set-up: scale not given here
Recorded A2 Bind. by entry
attribute-measured: A2 Bind.

INSERT INTO assay_data (substance, attribute_measured, readout_value) VALUES
  ('VMIAMEGGHV', 'A2 Bind.', 0.0530),
  ('WMELSVMEV', 'A2 Bind.', 0.0410),
  ('HLYIFATCLGL', 'A2 Bind.', 0.0410),
  ('VVSYVNVNM', 'A2 Bind.', 0.0100),
  ('KVADLVGFLLL', 'A2 Bind.', 0.0200),
  ('AMGLVCVQV', 'A2 Bind.', 0.0120),
  ('SLAFSAVPA', 'A2 Bind.', 0.0340),
  ('RVIEVLQRA', 'A2 Bind.', 0.1963),
  ('FMLLLCLIFL', 'A2 Bind.', 0.0450),
  ('LLYKLDIVSI', 'A2 Bind.', 0.0245),
  ('FLAIIWVDL', 'A2 Bind.', 0.0233),
  ('IAATYNFAV', 'A2 Bind.', 0.0540),
  ('YLQLVFGIEV', 'A2 Bind.', 0.3700),
  ('GLCQVFADV', 'A2 Bind.', 0.0300),
  ('LLVFACSAV', 'A2 Bind.', 0.0107),
  ('FLPSDFFPSI', 'A2 Bind.', 0.2100),
  ('YMFLWGPRV', 'A2 Bind.', 0.2200),
  ('TLQCKIKQII', 'A2 Bind.', 0.0200),
  ('AMLTACVEV', 'A2 Bind.', 0.1000),
  ('SLDSWWTSV', 'A2 Bind.', 0.1000),
  ('RLQPNVPLV', 'A2 Bind.', 0.0480),
  ('WLWYIKIFI', 'A2 Bind.', 0.0355),
  ('WMWFPSVLL', 'A2 Bind.', 0.0360),
  ('IMPKAGLLIIV', 'A2 Bind.', 0.0130),
  ('FIMIVGGLV', 'A2 Bind.', 0.0131),
  ('ILGFVFTLTV', 'A2 Bind.', 0.0550),
  ('LLWFHISCLI', 'A2 Bind.', 0.0130),
  ('ALMDLLMFS', 'A2 Bind.', 0.4300),
  ('RMYGVLPWI', 'A2 Bind.', 0.1650),
  ('LLNATDIAVA', 'A2 Bind.', 0.0117),
  ('TMFEALP HI (TMFEALPHI)', 'A2 Bind.', 0.2000),
  ('NLNNLNVSI', 'A2 Bind.', 0.0660),
  ('ALSLIVNLL', 'A2 Bind.', 0.0470),
  ('LLGRASFEV', 'A2 Bind.', 0.2200),
  ('RMTGGVFLV', 'A2 Bind.', 0.1500),
  ('GLLECCARCLV', 'A2 Bind.', 0.0515),
  ('LMIRGVLEV', 'A2 Bind.', 0.4500),
  ('RLCCQLDPA', 'A2 Bind.', 0.0290),
  ('LVLGTLEEV', 'A2 Bind.', 0.0320),
  ('LLNATDIAV', 'A2 Bind.', 0.0607);
